ASSAYED SYSTEM: T1, Human PD-1-His protein (Cat. #10377H08H, Sino Biological) (human, UniProt Q15116 25-167)
T1 construct: Bought protein; also called hPD-1-His; hu PD-1-his; not shown: His tag of the bought protein
T1 sequence (Q15116 25-167 limits assumed): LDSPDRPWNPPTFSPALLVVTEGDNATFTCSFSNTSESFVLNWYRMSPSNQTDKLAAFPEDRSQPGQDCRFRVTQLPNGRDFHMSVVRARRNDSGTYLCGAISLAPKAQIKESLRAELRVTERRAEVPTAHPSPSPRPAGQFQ
TEST NAME: SPR (Biacore), antibody captured on Protein A chip, PD-1 in flow
// reported kon for each item listed
MEASURED ENDPOINT: kon (M⁻¹ s⁻¹)

Hu32a-29.IgG4AA (antibody, V domains shown, Full-length IgG4-AA, kappa) VH: EVQLVQSGAEVKKPGSSVKVSCKASGFTFSDYEIHWVRQAPGQGLEWMGLFDPETGGIVYNQKFKGRVTLTADKSTSTAYMELSSLRSEDTAVYYCTREGYNRDWYFDVWGQGTTVTVSS VL: DIVMTQTPLSLPVTPGEPASISCRSSQSLVHSTGNTYLEWYLQKPGQSPQLLIYKVSNRFSGVPDRFSGSGSGTDFTLKISRVEAEDVGVYYCFQGSHVPYTFGGGTKVEIKR : 78900
Hu23-10.IgG4AA (antibody, V domains shown, Full-length IgG4-AA, kappa; also called Hu23LCDR1 (N28L)) VH: EVQLVQSGAEVKKPGSSVKVSCKASGGTFSDYEMHWVRQAPGQGLEWMGLIDPETGGTVYNQKFKDRVTITADKSTSTAYMELSSLRSEDTAVYYCARERFSYYGSTSDWYFDVWGQGTTVTVSS VL: DIVMTQTPLSLPVTPGEPASISCRSSQSLVHSLGNTYLEWYLQKPGQSPQLLIYKVSNRFSGVPDRFSGSGSGTDFTLKISRVEAEDVGVYYCFQGSHVPYTFGGGTKVEIKR : 55100
